Target: HLA B*0702 (Homo sapiens, UniProt P01889)
pIC50: −log10 of the molar value. Where a SMILES comes first, the peptide text is derived from it.
Each entry below carries its reported pIC50.
MEASURED ATTRIBUTE: pIC50

[
  {
    "COMPOUND": "CC(C)C[C@H](NC(=O)[C@H](C)NC(=O)[C@H](CC(=O)O)NC(=O)[C@H](Cc1ccccc1)NC(=O)[C@@H](NC(=O)[C@H](CC(N)=O)NC(=O)[C@@H]1CCCN1C(=O)[C@@H]1CCCN1C(=O)[C@@H](N)Cc1ccccc1)[C@@H](C)O)C(=O)O [FPPNTFDAL] (H-FPPNTFDAL-OH)",
    "VALUE OPERATOR": "=",
    "EXPERIMENTAL RESULT": 5.56
  },
  {
    "COMPOUND": "CC(C)C[C@H](NC(=O)[C@H](CO)NC(=O)[C@@H]1CCCN1C(=O)[C@H](CCCCN)NC(=O)[C@H](CC(N)=O)NC(=O)[C@H](CC(C)C)NC(=O)[C@H](CC(C)C)NC(=O)[C@H](CCCCN)NC(=O)[C@@H]1CCCN1C(=O)[C@@H](N)Cc1ccccc1)C(=O)O (H-FPKLLNKPSL-OH)",
    "VALUE OPERATOR": "=",
    "EXPERIMENTAL RESULT": 4.14
  },
  {
    "COMPOUND": "N=C(N)NCCC[C@H](NC(=O)[C@H](Cc1c[nH]c2ccccc12)NC(=O)[C@H](Cc1ccccc1)NC(=O)[C@H](CC(N)=O)NC(=O)[C@@H]1CCCN1C(=O)[C@@H](N)CCCCN)C(=O)N[C@@H](Cc1ccccc1)C(=O)N[C@@H](CCC(N)=O)C(=O)N[C@@H](CC(=O)O)C(=O)N[C@@H](Cc1ccc(O)cc1)C(=O)O (H-KPNFWRFQDY-OH; N-terminus assumed)",
    "VALUE OPERATOR": "<",
    "EXPERIMENTAL RESULT": 3.00
  }
]

---

The entries below come with measured pIC50 values attached.
Biological target: HLA B*4402 (Homo sapiens, UniProt P01889, A223V/A65T/A93T/A95T/D201E/D98Y/E176V/E187L/E204Q/E69K/G107R/H137Y/K202T/L105A/L119I/N104T/N87E/Q56L/Q94N/R106L/R155S/R180D/S101N/S121R/S35A/S48T/T118I/V36M/W191S/Y140D/Y91S)
Test: HLA class I binding assay (cell-free competition, fluorescence polarization)
pIC50: −log10 of the molar value. Where a SMILES comes first, the peptide text is derived from it.

[
  {
    "MOLECULE": "CC(C)C[C@H](NC(=O)[C@H](Cc1ccccc1)NC(=O)[C@@H]1CCCN1C(=O)[C@H](Cc1c[nH]cn1)NC(=O)[C@H](CCCCN)NC(=O)[C@@H](N)CO)C(=O)N[C@@H](CCCCN)C(=O)N[C@@H](CO)C(=O)NCC(=O)N[C@@H](Cc1ccccc1)C(=O)O (H-SKHPFLKSGF-OH; N-terminus assumed)",
    "VALUE OPERATOR": "<",
    "pIC50": 3.00
  },
  {
    "MOLECULE": "CC[C@H](C)[C@H](NC(=O)[C@H](CC(C)C)NC(=O)[C@@H](NC(=O)[C@@H](N)CO)[C@@H](C)CC)C(=O)N[C@@H](CO)C(=O)N[C@@H](CCCNC(=N)N)C(=O)N[C@@H](CC(C)C)C(=O)N[C@H](C(=O)N[C@@H](CC(C)C)C(=O)O)[C@@H](C)O (H-SILISRLTL-OH; N-terminus assumed)",
    "VALUE OPERATOR": "<",
    "pIC50": 3.00
  },
  {
    "MOLECULE": "CC[C@H](C)[C@H](NC(=O)[C@H](CC(C)C)NC(=O)[C@H](CC(=O)O)NC(=O)[C@H](CC(N)=O)NC(=O)[C@H](CCCNC(=N)N)NC(=O)[C@H](CO)NC(=O)[C@@H](NC(=O)[C@H](CCC(=O)O)NC(=O)[C@H](C)N)[C@@H](C)CC)C(=O)O (H-AEISRNDLI-OH)",
    "VALUE OPERATOR": "=",
    "pIC50": 5.34
  },
  {
    "MOLECULE": "CC[C@H](C)[C@H](NC(=O)[C@H](CCC(N)=O)NC(=O)[C@@H](NC(=O)[C@H](C)NC(=O)[C@H](CCCCN)NC(=O)[C@H](CC(C)C)NC(=O)[C@H](CC(N)=O)NC(=O)[C@H](CCC(=O)O)NC(=O)[C@@H](N)CC(=O)O)[C@@H](C)CC)C(=O)O (H-DENLKAIQI-OH)",
    "VALUE OPERATOR": "=",
    "pIC50": 4.04
  },
  {
    "MOLECULE": "CSCC[C@H](NC(=O)[C@H](CCC(=O)O)NC(=O)[C@@H](N)[C@@H](C)O)C(=O)N[C@@H](Cc1ccccc1)C(=O)N[C@@H](CCCCN)C(=O)N[C@@H](CC(C)C)C(=O)N[C@@H](CCCNC(=N)N)C(=O)N[C@@H](CC(C)C)C(=O)N[C@@H](CC(N)=O)C(=O)N[C@@H](CC(C)C)C(=O)O (H-TEMFKLRLNL-OH)",
    "VALUE OPERATOR": "=",
    "pIC50": 4.26
  },
  {
    "MOLECULE": "CC(C)C[C@H](NC(=O)[C@H](Cc1ccccc1)NC(=O)[C@H](CO)NC(=O)[C@H](Cc1ccccc1)NC(=O)[C@H](CS)NC(=O)[C@H](Cc1ccccc1)NC(=O)[C@H](CC(C)C)NC(=O)[C@H](CC(N)=O)NC(=O)[C@H](CC(C)C)NC(=O)[C@@H](N)CCCNC(=N)N)C(=O)O (H-RLNLFCFSFL-OH)",
    "VALUE OPERATOR": "=",
    "pIC50": 3.38
  },
  {
    "MOLECULE": "CC[C@H](C)[C@H](N)C(=O)N[C@@H](CCC(=O)O)C(=O)N[C@@H](CC(N)=O)C(=O)N[C@@H](CC(N)=O)C(=O)N[C@@H](CC(C)C)C(=O)N[C@@H](Cc1ccc(O)cc1)C(=O)N[C@@H](CCC(=O)O)C(=O)N[C@@H](CCCNC(=N)N)C(=O)N[C@@H](CC(C)C)C(=O)O (H-IENNLYERL-OH)",
    "VALUE OPERATOR": "=",
    "pIC50": 4.22
  }
]

---

Molecular target: HLA A*0101 (Homo sapiens, UniProt P04439, A114D/A174V/A182V/D101N/D185E/E176A/E190D/L180R/Q94H/R68K/S129P/T187R/V100A/V91M/W191G)
Test: HLA class I binding assay (cell-free competition, fluorescence polarization)
Where a SMILES comes first, the peptide text is derived from it.

[
  {
    "COMPOUND": "CC(C)[C@H](NC(=O)[C@H](CCC(=O)O)NC(=O)[C@H](Cc1ccccc1)NC(=O)[C@@H](NC(=O)[C@H](CC(=O)O)NC(=O)[C@H](CC(=O)O)NC(=O)[C@H](CCC(=O)O)NC(=O)[C@@H](N)CCCCN)[C@@H](C)O)C(=O)N[C@@H](Cc1ccc(O)cc1)C(=O)O (H-KEDDTFEVY-OH; N-terminus assumed)",
    "IC50": "> 1000 µM"
  },
  {
    "COMPOUND": "CC(C)C[C@H](NC(=O)CNC(=O)[C@@H]1CCCN1C(=O)[C@H](Cc1ccccc1)NC(=O)[C@@H](NC(=O)[C@H](CO)NC(=O)[C@@H](NC(=O)[C@@H](N)Cc1c[nH]cn1)[C@@H](C)O)C(C)C)C(=O)N[C@@H](Cc1ccc(O)cc1)C(=O)O (H-HTSVFPGLY-OH)",
    "IC50": "5.65 µM"
  },
  {
    "COMPOUND": "CC[C@H](C)[C@H](NC(=O)[C@H](CC(C)C)NC(=O)[C@H](CC(=O)O)NC(=O)[C@H](CC(C)C)NC(=O)[C@H](CCCCN)NC(=O)[C@H](CC(=O)O)NC(=O)[C@H](CO)NC(=O)[C@@H](N)CC(N)=O)C(=O)N[C@@H](Cc1ccc(O)cc1)C(=O)O (H-NSDKLDLIY-OH)",
    "IC50": "0.875 µM"
  },
  {
    "COMPOUND": "CC(C)[C@H](NC(=O)[C@H](CO)NC(=O)[C@H](CCC(=O)O)NC(=O)[C@H](Cc1ccccc1)NC(=O)[C@H](Cc1ccccc1)NC(=O)[C@@H](NC(=O)[C@@H](N)[C@@H](C)O)[C@@H](C)O)C(=O)N[C@@H](CO)C(=O)N[C@@H](Cc1ccc(O)cc1)C(=O)O (H-TTFFESVSY-OH)",
    "IC50": "338 µM"
  },
  {
    "COMPOUND": "CC(C)[C@H](NC(=O)[C@H](CC(N)=O)NC(=O)[C@@H](NC(=O)[C@@H](N)Cc1ccccc1)[C@@H](C)O)C(=O)N[C@@H](CC(N)=O)C(=O)N[C@@H](CCC(N)=O)C(=O)N[C@@H](Cc1ccccc1)C(=O)N[C@@H](Cc1ccccc1)C(=O)N[C@@H](CCCCN)C(=O)O (H-FTNVNQFFK-OH)",
    "IC50": "> 1000 µM"
  }
]
